SYSTEM: MS2 coat protein, dlFG mutant (Escherichia phage MS2, UniProt P03612, del68-81insG)
MEASUREMENT DESCRIPTION: 4 mM Mg2+; FMN 200 uM; RNA-MaP array; 100 mM Tris-HCl pH 7.5, 80 mM KCl, 4 mM MgCl2, 0.1 mg/mL BSA, 1 mM DTT, 0.01 mg/mL yeast tRNA, 0.01% Tween-20; protein 1.5 nM to 3 uM; 37 C (Table S3)
REPORTED CONDITIONS: chain copies: 2; label: tethered by stalled RNA polymerase
EXPERIMENTAL READOUT: Kd
Kindly format the answer as number then unit.

Note Kd for the binder shown: Eterna 6391704 (Inverted Exclusion NG 3) (ssRNA) RNA: AGCUGGUGACAGCAUCCAUCUUAACAUGAGGAUCACCCAUGUAGAAGGCUGUACGGUUACCGUACAGAGGAUAUACAUAGAUGG
9.28 nM
